Reference for the values: PubChem BioAssay (NCATS)

assay: Primary qHTS for inhibitors of MERS-S pseudo-typed particle cell entry (AID 1479149); conditions: MERS-S pseudotyped particle entry, luciferase; series mostly up to 57.1 µM; further: nearly all actives have a fitted effect of over 60% in size
Records with an inconclusive call do not appear. Calls of active or inactive are those of the source. The call rests on the fitted dose curve.
property_measured: outcome

# count of solved cases: 8
{"compound": "Cc1cccc(O)c1", "outcome": "inactive"}
{"compound": "CCCN(CC)C(CC)C(=O)Nc1c(C)cccc1C (stereo unspecified)", "outcome": "inactive"}
{"compound": "C=Cc1c(C)c2cc3nc(c(CC(=O)N[C@@H](CC(=O)O)C(=O)O)c4nc(cc5[nH]c(cc1[nH]2)c(C)c5CC)C(C)=C4C(=O)O)[C@@H](CCC(=O)O)[C@@H]3C", "outcome": "inactive"}
{"compound": "CCC(C(=O)NC(N)=O)c1ccccc1 (stereo unspecified)", "outcome": "inactive"}
{"compound": "ClCC1CO1 (stereo unspecified) (tested in a mixture with another compound)", "outcome": "inactive"}
{"compound": "COc1ccc(C(=O)N2CCN(c3ccc4c(c3)CCC(=O)N4)CC2)cc1OC", "outcome": "inactive"}
{"compound": "CC/C=C\\C/C=C\\C/C=C\\C/C=C\\C/C=C\\C/C=C\\CCC(=O)O", "outcome": "inactive"}
{"compound": "CCCC1C(=O)N2C(N(C)C)=Nc3ccc(C)cc3N2C1=O (stereo unspecified)", "outcome": "inactive"}

Ask | Given the entry CC(CCc1ccc(O)cc1)NCC(O)c1ccc(O)cc1 (stereo unspecified) , report its measured outcome.
Reply | inactive

Ask | Given the entry Nc1c(Br)cc(Br)cc1CNC1CCC(O)CC1 (stereo unspecified) , report its measured outcome.
Reply | inactive

Ask | Given the entry Cc1cc(=O)c(C(=O)N[C@@H](C(=O)N[C@@H]2C(=O)N3C(C(=O)O)=C(CSc4nnnn4C)CS[C@H]23)c2ccc(O)cc2)c[nH]1 , report its measured outcome.
Reply | inactive
